Source: the RNAGym collection of RNA variant scans (doi:10.1073/pnas.2313332121)

B1: TPR t1 (parent)
chain: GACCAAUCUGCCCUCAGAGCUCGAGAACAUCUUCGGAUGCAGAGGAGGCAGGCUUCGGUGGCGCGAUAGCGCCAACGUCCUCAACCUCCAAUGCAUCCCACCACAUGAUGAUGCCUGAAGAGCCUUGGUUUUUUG

variants of: B1; experiment: polymerase ribozyme fitness, log enrichment relative to wild type (log ratio); higher = more active; in vitro selection for triplet polymerase activity
measurement kind: polymerase ribozyme fitness (log ratio)
One number for each entry.

>>> print(df.to_string())
   variant_key  recorded_result
0    G10U U14A            -1.65

Report polymerase ribozyme fitness (log ratio) for each item below.
1. C53G G61C A66C
2. G39C A43C G69U C82G U96C
3. C13U A74U G93C G113A
4. G10U G48C
5. G48U C123A U126A
6. U7A C53G A83G A84C
7. G10A A37G G47U U59A G117U G122U U125G
8. C49U G128A

Reply |
-2.24
-3.31
-1.26
-0.778
-2.05
-0.766
-5.7
-2.63

Report polymerase ribozyme fitness (log ratio) for each item below.
1. U7G G45C G52C C79U C102A
2. G57A U78G C82G
3. A29G G69U A95G
4. G39U C53G C123U
5. G42A G45C G69U C123U
6. U9A C62A C85G U131C
7. A41C C70A A118U

Reply |
-3.37
-0.698
-1
1.06
-0.482
-1.16
-2.8

Report polymerase ribozyme fitness (log ratio) for each item below.
1. G113C U130G
2. U9C G47U G63U
3. A2U G10U C15G G69U U106A
4. U112A G122C
5. C13A A16G G61A C79G G113C

Reply |
1: -2.88; 2: -1.41; 3: -0.732; 4: 0.265; 5: -5.27

Report polymerase ribozyme fitness (log ratio) for each item below.
1. G42U C56U C86U
2. C20U C22A C76U C85G C123U
3. A16U C40G C56U U112G
4. U7G A29U C56A C76U
5. C4U C64A A68C C79A G120U

Reply |
1: -1.14; 2: -5.95; 3: -0.767; 4: -1.78; 5: -6.51

Report polymerase ribozyme fitness (log ratio) for each item below.
1. U54A G69C
2. C20G C53U G60A U96A
3. A50U U116A
4. C73G C101U

Reply |
1: -1.12; 2: -5.21; 3: -4.25; 4: -0.446

Report polymerase ribozyme fitness (log ratio) for each item below.
1. U14G C79G
2. U7G C53G C115U U116G
3. C62U G63U C101U G135A

Reply |
[-3.52, -0.555, -2.36]

Report polymerase ribozyme fitness (log ratio) for each item below.
1. A27C C49G
2. C11U C13A U78A
3. A5C G63A U81A
4. C70G U126C
5. A46U C70G

Reply |
-4.07
-0.472
-2.31
-3.27
-4.75

Report polymerase ribozyme fitness (log ratio) for each item below.
1. C3A C97U
2. C49U A66G G120C C123G

Reply |
-2.33
-1.48
